Exercise: state measured SPOT peptide array binding signal intensity for each of the binders provided.
# Target or test system: CaBzz1-D2
# Experimental details: SPOT peptide array binding signal intensity (averaged, normalized) (arbitrary units (background-subtracted, floor 0; scale differs between SH3 domains)); higher = stronger binding of the SH3 domain to the peptide
Give bare numbers.

binder=LPPPPPPPPPPPLPQ reported=495
binder=KMSRSPPRPPSLKII reported=466
binder=APKHAPPPVPNETDN reported=115
binder=EREKALPPIPFTTTL reported=1.53e-05
binder=GPPPPLPPPLFPSSS reported=10

Look up SPOT peptide array binding signal intensity for the entries below, preserving their order.
1. RSRRSSFAYPQQVAI
2. NNFYRPLLRSVLVLL
3. RKQRSIPLSPIVPES

Output:
[102, 1, 136]

Look up SPOT peptide array binding signal intensity for the entries below, preserving their order.
1. NLKKRPPTAPQRKIS
2. VTHRLRISIPGITGR
3. ISPPASPPPEFDFSK

Output:
2010
114
14.5
